System: RXRa homodimer (NR concentration 180 nM)
Experiment: PBM binding z-score (relative to random genomic background probes); higher = stronger binding; sequences stand for … in GC…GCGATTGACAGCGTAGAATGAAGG
Everything with PBM binding z-score lower than 2 is no; everything else, including exactly 2, is yes.

For this sequence, is measured PBM binding z-score 2 or higher? ATATGTAGTTTAGGGTCATTCAGAAAGTAGGGAA
yes

Dear colleague, could you confirm whether CCTGCTAGGTCTATGGTCAGCTAAAGCAGCTCGC has PBM binding z-score at or above 2?
no

API: above_or_equal(metric=PBM binding z-score, cutoff=2) for item TGGCCTAGGTCATGCGGGCCAGTATAGTGTCGGC
yes

Item CCGGGTAGGTTACGAGGGGGCATTCAGTGCGAAT with PBM binding z-score of 2 or above?
yes

Dear colleague, could you confirm whether GGAACGAGGGCATTCGAGTTGATAGCATGGCGAT has PBM binding z-score at or above 2?
no

Identify whether the reported PBM binding z-score of the following sequence is 2 or greater: ATAAGTAGGTTAGGGTCATTCAGAAAGTAGGGAA
yes

Decide: is the reported value of PBM binding z-score for TCGAGTAGGTAACGGGGGCATTCAGGGATGAAGA equal to or greater than 2?
no

Quick check: does TCGAGTAGGTTACGCGGGCATTCAGGGATGAAGA have PBM binding z-score greater than or equal to 2?
no

Could you tell me if the measured PBM binding z-score of ATATGTAGGTTACATCCGGGTCTTTCAGGCTATG reaches 2 or more?
no

Decide: is the reported value of PBM binding z-score for CGAACTAGGTCAAAGAACAGTGAAAGGCGACGTA equal to or greater than 2?
yes
